Data origin, for the record: PubChem BioAssay (NCI)

Tested on: LOX IMVI melanoma
Assay: NCI tumour cell line growth inhibition, 48 h
Property: TGI

Query CC1=C(/C=C/C(C)=C/C=C/C(C)=C/C(=O)O)C(C)(C)CCC1 on LOX IMVI melanoma; TGI returned: 52.6 µM

Query CC(=O)n1cc(OP(=O)(Oc2ccccc2)Oc2ccccc2)c2ccccc21 on LOX IMVI melanoma; TGI returned: 62.1 µM

Query CC(=[N-])N1CCC[C@@H](Nc2c3ccccc3nc3ccccc23)C1.[Cl][Pt].[NH-]CCC[NH-] on LOX IMVI melanoma; TGI returned: > 21.9 µM

Query O=C1OC(=O)C2CCCC3CCCC1C32 (centres undefined) on LOX IMVI melanoma; TGI returned: > 100 µM

Query CC(=O)O[C@@]12CO[C@@H]1C[C@@H](O)[C@@]1(C)C(=O)[C@H](O)C3=C(C)[C@@H](OC(=O)[C@H](O)[C@@H](NC(=O)c4ccccc4)c4ccccc4)C[C@@](O)([C@@H](OC(=O)c4ccccc4)C12)C3(C)C (some centres undefined) on LOX IMVI melanoma; TGI returned: 41.9 µM

Query COc1nc2c(c(=O)n1C)N=C(c1ccccc1)[C@H](C(CC(=O)c1ccccc1)c1ccccc1)C(c1ccccc1)N2 (some centres undefined) on LOX IMVI melanoma; TGI returned: > 100 µM

Query C#CCN(N=O)C(=O)NCCCCC(NC(C)=O)C(=O)NCc1ccccc1 (centres undefined) on LOX IMVI melanoma; TGI returned: > 100 µM

Query COC1(OC)C=CC2C1C1C=CC2C1(OC)OC (centres undefined) on LOX IMVI melanoma; TGI returned: > 100 µM

Query NS(=O)(=O)NCCNc1nonc1C(=Nc1ccc(F)c(Br)c1)NO on LOX IMVI melanoma; TGI returned: > 100 µM
